Hello, the source for this data is ChEMBL document CHEMBL1132979, in case you need it.

# systemUnderTest: 5-hydroxytryptamine receptor 1B (Rattus norvegicus, UniProt P28564)
# Sequence (P28564 whole entry): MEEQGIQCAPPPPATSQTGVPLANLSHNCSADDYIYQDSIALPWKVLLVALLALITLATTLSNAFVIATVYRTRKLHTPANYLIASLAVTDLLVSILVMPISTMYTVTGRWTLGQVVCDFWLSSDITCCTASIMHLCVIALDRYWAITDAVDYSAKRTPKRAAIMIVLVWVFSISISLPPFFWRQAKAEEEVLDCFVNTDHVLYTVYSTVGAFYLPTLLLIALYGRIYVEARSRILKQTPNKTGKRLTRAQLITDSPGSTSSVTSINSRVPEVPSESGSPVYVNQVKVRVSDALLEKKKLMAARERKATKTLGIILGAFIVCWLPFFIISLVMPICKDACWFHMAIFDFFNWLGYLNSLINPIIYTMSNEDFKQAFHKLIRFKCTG
pIC50: −log10 of the molar value.
pIC50 vs 7: at or above is rule met, below is rule not met.

- molecule: "COc1ccc(NC(=O)N2CCc3[nH]c4ccc(F)cc4c3C2)cc1N1CCN(C)CC1"
  systemUnderTest: "5-hydroxytryptamine receptor 1B (Rattus norvegicus, UniProt P28564)"
  classification: "rule not met"
- molecule: "CN1CCC2(CC1)COc1ccc(NC(=O)NCCN3CCC(c4c[nH]c5cc(F)ccc45)CC3)cc12"
  systemUnderTest: "5-hydroxytryptamine receptor 1B (Rattus norvegicus, UniProt P28564)"
  classification: "rule not met"
- molecule: "COc1ccc(NC(=O)N2CCC(c3c[nH]c4ccc(F)cc34)CC2)cc1OCCN(C)C"
  systemUnderTest: "5-hydroxytryptamine receptor 1B (Rattus norvegicus, UniProt P28564)"
  classification: "rule not met"
- molecule: "Cc1nc(-c2ccc(-c3ccc(C(=O)Nc4ccc5c(c4)C4(CCN(C)CC4)CO5)cc3)c(C)c2)no1"
  systemUnderTest: "5-hydroxytryptamine receptor 1B (Rattus norvegicus, UniProt P28564)"
  classification: "rule met"
- molecule: "COc1ccc(NC(=O)NCCc2c[nH]c3ccc(O)cc23)cc1N1CCN(C)CC1"
  systemUnderTest: "5-hydroxytryptamine receptor 1B (Rattus norvegicus, UniProt P28564)"
  classification: "rule not met"
- molecule: "COc1ccc(NC(=O)N2CCC(c3c[nH]c4ccc(C#N)cc34)CC2)cc1N1CCN(C)CC1"
  systemUnderTest: "5-hydroxytryptamine receptor 1B (Rattus norvegicus, UniProt P28564)"
  classification: "rule not met"
- molecule: "COc1ccc(NC(=O)N2CCC(c3c[nH]c4ccc(F)cc34)C2)cc1N1CCN(C)CC1 (stereo unspecified)"
  systemUnderTest: "5-hydroxytryptamine receptor 1B (Rattus norvegicus, UniProt P28564)"
  classification: "rule not met"
- molecule: "CN1CCC2(CC1)COc1ccc(NC(=O)N3CCC(c4c[nH]c5ccc(F)cc45)CC3)cc12"
  systemUnderTest: "5-hydroxytryptamine receptor 1B (Rattus norvegicus, UniProt P28564)"
  classification: "rule met"
- molecule: "COc1ccc(NC(=O)N2CCC(c3c[nH]c4ccccc34)CC2)cc1N1CCN(C)CC1"
  systemUnderTest: "5-hydroxytryptamine receptor 1B (Rattus norvegicus, UniProt P28564)"
  classification: "rule met"
